# Tested on: rodent lifetime carcinogenesis bioassay, tumor incidence TD50
# assay info: carcinogenic potency in animals, long-term in vivo studies, CPDB compilation (AID 1745844)
# condition set: rat; strain NBL/Cr; males; in drinking water; site: kidney; lesion: several types; types named in the paper; dosed 102 weeks; study length 102 weeks
assay metric: TD50

Measured on rodent lifetime carcinogenesis bioassay, tumor incidence TD50, `[Cl][Cd][Cl]` has a documented TD50 of 114 mg/kg/day

----------
# System: rodent lifetime carcinogenesis bioassay, tumor incidence TD50
# assay info: carcinogenic potency in animals, long-term in vivo studies, CPDB compilation (AID 1745844)
# condition set: mouse; strain B6C3F1; males; in feed; site: any site (literature study); lesion: several types; types named in the paper; dosed 78 weeks; study length 95 weeks
For each entry below, report its log10 TD50 value.
Base-10 log of TD50, unit mg/kg/day.

The value of log10 TD50 measured for the compound `[O-]/[N+](=N\O)c1ccccc1` turned out to be 2.40

Notebook: `O=[N+]([O-])c1ccc2nc[nH]c2c1` , log10 TD50 read as 3.30

The reported value for `Cc1ccc([N+](=O)[O-])cc1N` in terms of log10 TD50 is 2.63

Entry `CCn1c2ccccc2c2cc(N)ccc21` — recorded log10 TD50 = 1.85

Entry `Nc1ccc(Cl)cc1N` , log10 TD50 reported as 2.96

FYI, the data here is from PubChem BioAssay AID1745844.
